pIC50: −log10 of the molar value.
// cross-study collection: pIC50 for TYRO3 (Homo sapiens)

- MOLECULE: "COC[C@H](C)Nc1ncc2c(-c3ccnc([S@](C)(=N)=O)c3)cc([C@H]3CC[C@H](O)CC3)n2n1"
  pIC50: "≥ 7.00"
- MOLECULE: "CCCCNc1ncc2c(n1)N([C@H]1CC[C@H](N)CC1)Cc1cc(CNC3CCCC3)ccc1-2"
  pIC50: "> 7.00"
- MOLECULE: "FC1CN(c2ccc(-c3c[nH]c4ncc(-c5ccc6c(c5)CC[C@@H](N5C7COCC5C7)CC6)cc34)cc2)C1"
  pIC50: "6.00 to 7.00"
- MOLECULE: "C[C@@H]1CCCN1C1(C)CCc2ccc(-c3cnc4[nH]nc(-c5ccc(S(=O)(=O)C6CCCC6)cc5)c4c3)cc2CC1 (stereo partly shown)"
  pIC50: "6.00 to 7.00"
- MOLECULE: "COC[C@H](C)Nc1ncc2c(-c3cnn(CC(=O)N(C)C)c3)cc([C@H]3CC[C@H](O)CC3)n2n1"
  pIC50: "≥ 7.00"
- MOLECULE: "CCCC(C)Nc1ncc2c(OC3CCN(CCOC)CC3)ncc([C@H]3CC[C@H](O)CC3)c2n1 (stereo partly shown)"
  pIC50: "≥ 7.00"
- MOLECULE: "CCCCNc1cc2c(cn1)c(OC1CCNCC1)ncc2[C@H]1CC[C@H](O)CC1"
  pIC50: "≥ 7.00"
